molecular target: Heat shock protein HSP90 (Homo sapiens, UniProt P07900+P08238); test: Inhibition of Hsp90 in human SKBR3 cells assessed as down-regulation of Her2 protein by ELISA; assay type: cell-based; conditions: sk-br-3
Record form. Attribute: IC50. Fill in for each entry.

Exam item: Supply measured IC50 of COc1ccc(C2=C(NC(=O)c3ccc4ccccc4c3)C(=O)c3ccccc3C2=O)cc1 in your reply.
Marked response: > 100000 nM

Exam item: Supply measured IC50 of O=C(NC1=C(c2ccc(Cl)cc2)C(=O)c2ccccc2C1=O)c1ccccc1 in your reply.
Marked response: 1800 nM

Exam item: Supply measured IC50 of COc1ccc(C2=C(NC(=O)c3cccc(OC)c3)C(=O)c3ccccc3C2=O)cc1 in your reply.
Marked response: 44200 nM

Exam item: Supply measured IC50 of O=C(NC1=C(c2ccc3oc4ccccc4c3c2)C(=O)c2ccccc2C1=O)c1ccccc1 in your reply.
Marked response: > 100000 nM

Exam item: Supply measured IC50 of CC(=O)NC1=C(c2cccc(Cl)c2)C(=O)c2ccccc2C1=O in your reply.
Marked response: 2000 nM

Exam item: Supply measured IC50 of COc1ccc(C2=C(NC(=O)c3ccccc3)C(=O)c3ccccc3C2=O)cc1 in your reply.
Marked response: 2800 nM

Exam item: Supply measured IC50 of CC(=O)C1=C(c2ccccc2)C(=O)c2ccccc2C1=O in your reply.
Marked response: 3300 nM

Exam item: Supply measured IC50 of COc1cccc(-c2cc(C(=O)NC3=C(Cl)C(=O)c4ccccc4C3=O)ccc2OC)c1 in your reply.
Marked response: 1700 nM

Exam item: Supply measured IC50 of COc1cccc(C2=C(NC(=O)c3ccccc3)C(=O)c3ccccc3C2=O)c1 in your reply.
Marked response: 2700 nM

Exam item: Supply measured IC50 of O=C(NC1=C(c2ccccc2Cl)C(=O)c2ccccc2C1=O)c1ccccc1 in your reply.
Marked response: 1800 nM

Exam item: Supply measured IC50 of CC(=O)NC1=C(Cl)C(=O)c2ccccc2C1=O in your reply.
Marked response: 6600 nM
